Reference for the values: ChEMBL document CHEMBL4049417

Hi there, I'd appreciate the recorded IC50 for every entry that follows.
- assayed-target: PI3-kinase p110-delta/p85-alpha (Homo sapiens)
- Sequence (P27986 whole entry): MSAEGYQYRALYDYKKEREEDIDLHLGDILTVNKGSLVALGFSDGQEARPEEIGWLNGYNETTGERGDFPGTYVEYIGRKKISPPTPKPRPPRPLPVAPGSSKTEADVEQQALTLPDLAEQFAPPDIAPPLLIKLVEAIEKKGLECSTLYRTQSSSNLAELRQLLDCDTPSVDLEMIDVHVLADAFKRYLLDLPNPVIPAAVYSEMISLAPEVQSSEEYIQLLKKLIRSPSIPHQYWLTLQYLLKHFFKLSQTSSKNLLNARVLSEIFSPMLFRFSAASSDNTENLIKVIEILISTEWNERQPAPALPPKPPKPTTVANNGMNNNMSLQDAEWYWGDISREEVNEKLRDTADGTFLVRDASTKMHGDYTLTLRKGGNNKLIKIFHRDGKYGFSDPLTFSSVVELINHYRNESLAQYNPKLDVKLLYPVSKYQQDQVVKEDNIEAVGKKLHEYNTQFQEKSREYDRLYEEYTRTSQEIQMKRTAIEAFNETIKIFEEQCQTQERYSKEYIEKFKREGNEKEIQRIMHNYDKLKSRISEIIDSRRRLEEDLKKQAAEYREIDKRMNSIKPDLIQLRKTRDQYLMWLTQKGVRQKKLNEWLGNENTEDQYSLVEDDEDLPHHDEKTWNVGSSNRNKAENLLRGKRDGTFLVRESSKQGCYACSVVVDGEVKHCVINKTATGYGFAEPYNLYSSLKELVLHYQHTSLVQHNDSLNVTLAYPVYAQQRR
- Sequence (O00329 whole entry): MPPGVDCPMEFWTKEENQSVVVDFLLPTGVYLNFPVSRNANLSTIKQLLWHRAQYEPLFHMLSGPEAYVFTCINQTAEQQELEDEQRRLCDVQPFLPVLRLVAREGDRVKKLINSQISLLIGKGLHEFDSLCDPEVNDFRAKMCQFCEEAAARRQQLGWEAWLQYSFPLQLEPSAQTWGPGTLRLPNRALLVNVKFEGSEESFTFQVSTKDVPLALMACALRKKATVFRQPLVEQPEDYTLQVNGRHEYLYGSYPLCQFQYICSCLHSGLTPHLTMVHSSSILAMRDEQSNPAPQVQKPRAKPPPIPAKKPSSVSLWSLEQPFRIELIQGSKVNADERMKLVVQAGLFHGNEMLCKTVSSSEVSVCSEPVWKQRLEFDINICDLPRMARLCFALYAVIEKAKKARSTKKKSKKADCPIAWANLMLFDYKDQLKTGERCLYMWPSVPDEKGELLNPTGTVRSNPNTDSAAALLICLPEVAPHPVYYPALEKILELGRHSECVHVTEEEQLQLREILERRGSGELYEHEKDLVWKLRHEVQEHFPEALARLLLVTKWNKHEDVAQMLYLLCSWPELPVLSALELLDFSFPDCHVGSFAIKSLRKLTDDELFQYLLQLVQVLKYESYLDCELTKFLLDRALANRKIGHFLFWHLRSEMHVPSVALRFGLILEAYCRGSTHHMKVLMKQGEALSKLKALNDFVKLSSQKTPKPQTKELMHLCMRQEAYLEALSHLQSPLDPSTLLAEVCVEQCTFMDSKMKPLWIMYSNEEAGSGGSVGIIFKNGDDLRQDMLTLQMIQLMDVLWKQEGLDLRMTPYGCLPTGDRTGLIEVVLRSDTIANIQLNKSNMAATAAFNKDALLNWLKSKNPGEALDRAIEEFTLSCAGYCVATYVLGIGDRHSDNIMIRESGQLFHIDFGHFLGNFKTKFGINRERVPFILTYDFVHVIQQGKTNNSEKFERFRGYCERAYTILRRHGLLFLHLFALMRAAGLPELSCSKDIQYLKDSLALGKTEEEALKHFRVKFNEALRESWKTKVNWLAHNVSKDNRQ
- experiment-summary: Inhibition of PI3K p110delta/p85alpha (unknown origin) using lipid substrate after 40 mins by kinase-glo luminescence assay
One number for each entry, in nM.

{"mol": "NC(=O)c1cc(-c2ccc3ncnc(Nc4cccc(C(=O)N5CCOCC5)c4)c3c2)cc(C(F)(F)F)c1", "parameter": "IC50", "obs-value": 9.7}

Attention now shifts to the item below.
Return reported IC50; argument: COc1ncc(-c2ccc3ncnc(Nc4cccc(C(=O)N5CCOCC5)c4)c3c2)cc1C#N 9.3

----------
- System: Ramos
- experiment-summary: Antiproliferative activity against human Ramos cells after 72 hrs by MTT assay
- Format: functional, cell-based
pIC50: −log10 of the molar value.
Hi there, I'd appreciate the recorded pIC50 for every entry that follows.

Guide cases for pIC50, answers given:
{"molecule": "CC[C@H](Nc1ncnc2[nH]cnc12)c1nc2cccc(F)c2c(=O)n1-c1ccccc1 [IDELALISIB]", "pIC50": "< 5.00"}
{"molecule": "NC(=O)c1cc(-c2ccc3ncnc(Nc4cccc(C(=O)N5CCOCC5)c4)c3c2)cc(C(F)(F)F)c1", "pIC50": 5.97}

Attention now shifts to the item below.
Return reported pIC50; argument: COc1ncc(-c2ccc3ncnc(Nc4cccc(C(=O)N5CCOCC5)c4)c3c2)cc1C#N < 5.00
